Data origin: paper PMC10144301

# experimentalTarget: H3R (Homo sapiens, UniProt Q9Y5N1)
# Sequence (Q9Y5N1 whole entry, species assumed): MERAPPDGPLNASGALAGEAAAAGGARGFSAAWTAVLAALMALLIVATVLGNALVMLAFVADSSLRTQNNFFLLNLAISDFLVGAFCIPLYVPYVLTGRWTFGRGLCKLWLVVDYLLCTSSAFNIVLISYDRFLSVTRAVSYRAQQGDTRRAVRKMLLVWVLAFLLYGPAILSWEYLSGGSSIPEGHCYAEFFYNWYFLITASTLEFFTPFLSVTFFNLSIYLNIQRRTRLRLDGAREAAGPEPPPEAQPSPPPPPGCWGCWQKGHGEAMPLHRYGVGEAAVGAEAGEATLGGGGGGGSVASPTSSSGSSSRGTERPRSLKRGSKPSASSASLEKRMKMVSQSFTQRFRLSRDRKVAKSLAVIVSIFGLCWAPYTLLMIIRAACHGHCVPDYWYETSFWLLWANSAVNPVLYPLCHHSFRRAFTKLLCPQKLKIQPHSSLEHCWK
# protocolDescription: CRE luciferase reporter assay for H3R antagonistic activity
measurementName: IC50 (µM)

Please review the entries below; each comes with its answer.
> print(dat)
                                   compound                  experimentaltarget  unitofmeasurement  endpointresult
1  O=C1CCc2cc(OCCCN3CCCCC3)ccc2N1 [Compound 2h]  H3R (Homo sapiens, UniProt Q9Y5N1)                 µM            0.12
2  CCCCCN1C(=O)CCc2cc(OCCCN3CCCCC3)ccc21 [Compound 4b]  H3R (Homo sapiens, UniProt Q9Y5N1)                 µM            1.91
3  CCN(CC)CCCOc1ccc2c(c1)CCC(=O)N2 [Compound 2a]  H3R (Homo sapiens, UniProt Q9Y5N1)                 µM            0.52
4  O=C1CCc2cc(OCCCN3CCOCC3)ccc2N1 [Compound 2g]  H3R (Homo sapiens, UniProt Q9Y5N1)                 µM              46
5  O=C1CCc2cc(OCCCN3CCN(c4ccccc4)CC3)ccc2N1 [Compound 2f]  H3R (Homo sapiens, UniProt Q9Y5N1)                 µM            25.6

(1) O=C1CCc2cc(OCCCN3CCC(c4ccccc4)CC3)ccc2N1 [Compound 2i]
(2) O=C1CCc2cc(OCCCCN3CCCCC3)ccc2N1 [Compound 3b]
(3) O=C1CCc2cc(OCCN3CCCCC3)ccc2N1 [Compound 3a]
(4) O=C1CCc2cc(OCCCN3CCCC3)ccc2N1 [Compound 2c]
Put the items in sequence by IC50, from largest down. In your reply, arrange the labels in the requested order.
1, 3, 2, 4
(1: 38.5 µM, 3: 7.49 µM, 2: 2.88 µM, 4: 0.47 µM)

====

Listed below: melting point values for each entry.

> print(dat)
                                    compound  measurementname  endpointresult
 1  CN1CCN(CCCOc2ccc3c(c2)CCC(=O)N3)CC1 [Compound 2e]    melting point   159 to 160 °C
 2  O=C1CCc2cc(OCCCN3CCC(c4ccccc4)CC3)ccc2N1 [Compound 2i]    melting point   174 to 176 °C
 3  O=C1CCc2cc(OCCCN3CCOCC3)ccc2N1 [Compound 2g]    melting point   146 to 147 °C
 4  O=C1CCc2cc(OCCCCCN3CCCCC3)ccc2N1 [Compound 3c]    melting point   150 to 151 °C
 5  O=C1CCc2cc(OCCCN3CCCC3)ccc2N1 [Compound 2c]    melting point   120 to 122 °C
 6  O=C1CCc2cc(OCCCCN3CCCCC3)ccc2N1 [Compound 3b]    melting point   150 to 151 °C
 7  CCCN(CCC)CCCOc1ccc2c(c1)CCC(=O)N2.Cl [Compound 2b]    melting point     57 to 59 °C
 8  O=C1CCc2cc(OCCCN3CCNCC3)ccc2N1 [Compound 2d]    melting point   150 to 151 °C
 9  O=C1CCc2cc(OCCN3CCCCC3)ccc2N1 [Compound 3a]    melting point   147 to 149 °C
10  O=C1CCc2cc(OCCCN3CCN(c4ccccc4)CC3)ccc2N1 [Compound 2f]    melting point   199 to 201 °C

Let us examine a further case.
Fill blank: measured melting point of the compound CCN(CC)CCCOc1ccc2c(c1)CCC(=O)N2 [Compound 2a] is ____.
68 to 70 °C

====

# experimentalTarget: H3R (Homo sapiens, UniProt Q9Y5N1)
# protocolDescription: CRE luciferase reporter assay for H3R antagonistic activity
measurementName: IC50 (µM)
# output: bare number, implied unit µM

> print(dat)
                                   compound                  experimentaltarget  measurementname  endpointresult
1  CN1CCN(CCCOc2ccc3c(c2)CCC(=O)N3)CC1 [Compound 2e]  H3R (Homo sapiens, UniProt Q9Y5N1)             IC50            38.1

Let us examine a further case.
Fill blank: measured IC50 of the compound CCCN1C(=O)CCc2cc(OCCCN3CCCCC3)ccc21 [Compound 4a] is ____.
0.37

====

# experimentalTarget: H3R (Homo sapiens, UniProt Q9Y5N1)
# protocolDescription: CRE luciferase reporter assay for H3R antagonistic activity
# Type: cell-based
pIC50: −log10 of the molar value.
Listed below: pIC50 values for each entry.

Please review the entries below; each comes with its answer.
> print(dat)
                compoundstructurestring  endpointresult
1  CCCN(CCC)CCCOc1ccc2c(c1)CCC(=O)N2.Cl          < 4.30
2        O=C1CCc2cc(OCCCN3CCNCC3)ccc2N1          < 4.30

Let us examine a further case.
Fill blank: measured pIC50 of the compound `O=C1CCc2cc(OCCCCCN3CCCCC3)ccc2N1` is ____.
< 4.30
